Assay: HPLC quantitation of compound and metabolite concentration in rabbit serum and liver
Assay type: in vivo, female New Zealand White rabbits
Conditions: po; rabbit liver, diet 0.4%, 7 days; read-out: Liver Parent = parent compound concentration
We begin with a simple list: items and their reported log10 concentration at 168 h.
Recorded metric: log10 concentration at 168 h (log10 of the value in ng/g)

[[record]]
smiles = "CN(C)c1ccc([Si](C)(C)COc2cc(C(C)(C)C)c(O)c(C(C)(C)C)c2)cc1"
reading = 3.90

[[record]]
smiles = "CC(C)(C)c1cc(OC[Si](C)(C)c2ccc(C(F)(F)F)cc2)cc(C(C)(C)C)c1O"
reading = 4.74

[[record]]
smiles = "CC(C)(C)c1cc(OC[Si](C)(C)c2ccccc2)c(C(C)(C)C)cc1O"
reading = 3.56

[[record]]
smiles = "COc1ccc([Si](C)(C)COc2ccc(O)c(C(C)(C)C)c2)cc1"
reading = 3.96

[[record]]
smiles = "CC(C)(C)c1cc(OC[Si](C)(c2ccccc2)c2ccccc2)cc(C(C)(C)C)c1O"
reading = 4.67


---

Test: Clinical chemistries in serum of rats
Assay type: in vivo, male Sprague-Dawley rats
Details: rat serum, diet 0.1%, 4 days
Recorded metric: ALP (alkaline phosphatase), percent of control (%)

[[record]]
smiles = "CC(C)(C)c1cc(OC[Si](C)(C)c2ccc(C(F)(F)F)cc2)cc(C(C)(C)C)c1O"
reading = 112

[[record]]
smiles = "CC(=O)Oc1ccc(OC[Si](C)(C)c2ccccc2)cc1C(C)(C)C"
reading = 101

[[record]]
smiles = "CC(C)(C)c1cc(OC[Si](C)(C)c2ccccc2)ccc1O"
reading = 116

[[record]]
smiles = "CN(C)c1ccc([Si](C)(C)COc2cc(C(C)(C)C)c(O)c(C(C)(C)C)c2)cc1"
reading = 112


---

The molecules listed here are annotated with their food (grams eaten per day per rat), percent of control.
Assay: Animal parameters (food, body weight, liver weight, mortality) in rats
Format: in vivo, male Sprague-Dawley rats
Conditions: diet 0.3%, 4 days
Recorded metric: food (grams eaten per day per rat), percent of control (%)

[[record]]
smiles = "COc1ccc([Si](C)(C)COc2ccc(O)c(C(C)(C)C)c2)cc1"
reading = 91

[[record]]
smiles = "CC(C)(C)c1cc(SC[Si](C)(C)c2ccccc2)cc(C(C)(C)C)c1OC(=O)CCC(=O)O"
reading = 87

[[record]]
smiles = "CC(C)(C)c1cc(OC[Si](C)(C)c2ccccc2)c(C(C)(C)C)cc1O"
reading = 74

